- assayName: AUC (0 to t) in Sprague-Dawley rat at 10 mg/kg, po measured for 0.083 to 24 hrs by LC-MS/MS analysis
- Format: ADME, organism-based
- Design: time 0.083-24 hr, dose 10 mg/kg, route oral
- conditionSummary: in vivo
parameterMeasured: AUC(0-t) (ng·h/mL)
One number for each entry, in ng·h/mL.

Given the entry COc1ccc(Cl)cc1S(=O)(=O)Nc1ccc2[nH]c(=O)c3ccccc3c2c1 , report its measured AUC(0-t).
566

====

Please go through the items and note down their pIC50.
- testSystem: Bromodomain-containing protein 4 (Homo sapiens, UniProt O60885)
- assayName: Inhibition of recombinant human His-tagged BRD4 bromodomain 1/2 (2 to 1362 residues) expressed in […] insect cells using biotinylated H4(1 to 21)K5/8/12/16Ac peptide as substrate preincubated for 30 mins followed by substrate addition and measured after 30 mins by Alpha screen assay
Answers are plain numbers, as −log10 of the molar value.

Take each entry in turn and give its pIC50.
1. COc1ccc(S(=O)(=O)Nc2ccc3[nH]c(=O)c4ccccc4c3c2)cc1
2. O=C(Nc1ccc2[nH]c(=O)c3ccccc3c2c1)Oc1ccccc1
3. COc1ccccc1S(=O)(=O)Nc1ccc2[nH]c(=O)c3ccccc3c2c1
4. N#Cc1cccc(S(=O)(=O)Nc2ccc3[nH]c(=O)c4ccccc4c3c2)c1

1: 5.88; 2: 5.22; 3: 6.32; 4: 5.75

Take each entry in turn and give its pIC50.
1. O=c1[nH]c2ccc(NS(=O)(=O)c3ccccc3)cc2c2ccccc12
2. COc1cc(Cl)ccc1S(=O)(=O)Nc1ccc2oc(=O)ccc2c1
3. CC(C)(C)c1ccc(S(=O)(=O)Nc2ccc3[nH]c(=O)c4ccccc4c3c2)cc1
4. O=c1[nH]c2ccc(NS(=O)(=O)c3ccccc3Cl)cc2c2ccccc12
5. O=c1[nH]c2ccc(NS(=O)(=O)c3ccc4c(c3)CCO4)cc2c2ccccc12
6. CCCCS(=O)(=O)Nc1ccc2[nH]c(=O)c3ccccc3c2c1

5.79
6.03
5.95
5.90
4.88
5.26

====

- assayName: Tmax in Sprague-Dawley rat at 10 mg/kg, po measured for 0.083 to 24 hrs by LC-MS/MS analysis
- Assay type: ADME, organism-based
- conditionSummary: in vivo
parameterMeasured: Tmax (h)
Numbers only, in h.

Given the entry COc1ccc(Cl)cc1S(=O)(=O)Nc1ccc2[nH]c(=O)c3ccccc3c2c1 , report its measured Tmax.
5.33

====

- testSystem: Bromodomain-containing protein 4 (Homo sapiens)
- assayName: Inhibition of recombinant human His-tagged BRD4 bromodomain 1/2 (2 to 1362 residues) expressed in […] insect cells using biotinylated H4(1 to 21)K5/8/12/16Ac peptide as substrate preincubated for 30 mins followed by substrate addition and measured after 30 mins by Alpha screen assay
Please go through the items and note down their pIC50.
Answers are plain numbers, as −log10 of the molar value.

{"smilesNotation": "COc1ccc(Cl)cc1S(=O)(=O)Nc1ccc2[nH]c(=O)c3ccccc3c2c1", "pIC50": 6.62}
{"smilesNotation": "O=c1[nH]c2ccc(NS(=O)(=O)c3ccc(Cl)cc3)cc2c2ccccc12", "pIC50": 6.07}
{"smilesNotation": "O=c1[nH]c2ccc(NS(=O)(=O)c3cccs3)cc2c2ccccc12", "pIC50": 5.17}

Take each entry in turn and give its pIC50.
1. O=C(Nc1ccccc1)Nc1ccc2[nH]c(=O)c3ccccc3c2c1
2. O=c1[nH]c2ccc(NS(=O)(=O)c3cccc(Cl)c3)cc2c2ccccc12

1. 5.00
2. 6.10

Take each entry in turn and give its pIC50.
1. CCCS(=O)(=O)Nc1ccc2[nH]c(=O)c3ccccc3c2c1
2. O=c1[nH]c2ccc(NS(=O)(=O)c3ccc4ccccc4c3)cc2c2ccccc12
3. O=c1[nH]c2ccc(NS(=O)(=O)C3CCCC3)cc2c2ccccc12
4. O=c1[nH]c2ccc(NS(=O)(=O)C3CCCCC3)cc2c2ccccc12
5. O=C(Nc1ccc2[nH]c(=O)c3ccccc3c2c1)c1ccccc1
6. O=c1[nH]c2ccc(NS(=O)(=O)Cc3ccccc3)cc2c2ccccc12

[5.17, 5.14, 5.21, 5.23, 4.73, 5.29]

====

- assayName: AUC (0 to infinity) in Sprague-Dawley rat at 10 mg/kg, po measured for 0.083 to 24 hrs by LC-MS/MS analysis
- Format: ADME, organism-based
- Design: dose 10 mg/kg, route oral, time infinity
- conditionSummary: in vivo
parameterMeasured: AUC(0-inf) (ng·h/mL)
Numbers only, in ng·h/mL.

Given the entry COc1ccc(Cl)cc1S(=O)(=O)Nc1ccc2[nH]c(=O)c3ccccc3c2c1 , report its measured AUC(0-inf).
670

====

- assayName: Volume of distribution at steady state in Sprague-Dawley rat at 2.5 mg/kg, iv measured for 0.083 to 24 hrs by LC-MS/MS analysis
- Type: ADME, organism-based
- conditionSummary: in vivo, read-out: Vdss
parameterMeasured: Vd (L/kg)
One number for each entry, in L/kg.

Given the entry COc1ccc(Cl)cc1S(=O)(=O)Nc1ccc2[nH]c(=O)c3ccccc3c2c1 , report its measured Vd.
76.7

====

- assayName: Half life in Sprague-Dawley rat at 10 mg/kg, po measured for 0.083 to 24 hrs by LC-MS/MS analysis
- Format: ADME, organism-based
- conditionSummary: in vivo
parameterMeasured: half-life (h)
Answers are plain numbers, in h.

Given the entry COc1ccc(Cl)cc1S(=O)(=O)Nc1ccc2[nH]c(=O)c3ccccc3c2c1 , report its measured half-life.
3.87
